Data credit: the supplement of paper PMC12764529

As shown below, each of these sequences has a reported folding stability dG unfold value.
# experiment: folding stability dG unfold (combined trypsin and chymotrypsin); higher = more stable

# query_sequence, folding stability dG unfold
data = [
    ("SAGGSAGGSKLPDGPYKIRMPHNGRPYEMPIRVTSDGMIEVRMPGEGKKRTFPLNQAEIEPLDSAGGSAGGS [r12_782_TrROS]", "< -1 kcal/mol"),
    ("SAKKIILIKAESEEELKKAIEEAKKLAEEGKKVEIIIETPKGLILIEIDVKTKKIKIKNLETGEEIELESAG [r14_423_TrROS_Hall]", "1.19 kcal/mol"),
    ("SAGGATIELEAEEHPETKKITIYVKSENPILTIEKIAKELKEKEDDIELTLVNEDGVPYTIKLEDLISAGGS [r8_236_TrMRF]", "0.217 kcal/mol"),
    ("SAGGSAGGSASLSLDQVGTVTFPANGAPALVTRLPDGSVALYFPATGRVLYLDGPNDVTPDSAGGSAGGSAG [r3_96_TrMRF]", "0.552 kcal/mol"),
    ("GLVDEDGKEVFPEVPLVIELDVPENLPDGKKLSPEEVEKLVKGLAEKLKKEYNVKKVEAERKGNKVLILVGS [r1_369_TrMRF]", "0.706 kcal/mol"),
    ("SAGGSAGGKKKFKVEKITEIKVEKLENGEEVIVKIRLKNGEEIEIPAKDIKLEDLPEGAEIEVISAGGSAGG [r6_609_TrROS_Hall]", "< -1 kcal/mol"),
    ("SAGEELLREIAKKLNLPEGAEIVKVEIKVEEKDGRLRITITITVRNKETGELKTIEIEIEIELPEEEEESAG [r5_94_TrROS_Hall]", "4.01 kcal/mol"),
    ("SAGGSAGGSMIIIVKLPNGEELPIEVEGEEEAEKIAEEIVKALIEKGITPVSVEIRPIKPEEGSAGGSAGGS [r12_301_TrMRF]", "2.97 kcal/mol"),
    ("SAGGSRTVLLYDPDNPRPYIVEYDPATGTLRIYDPETGELVAEFPIPDLKDIEAPVVPNGILLGAIVDSAGG [r13_720_TrMRF]", "1.68 kcal/mol"),
    ("SAGGSAGGSMTIVIKVKSKEDALEAAKALLAELGIEEGAEVKKIEVEEVDPENKEYYVRIEVKSAGGSAGGS [r12_999_TrROS_Hall]", "1.75 kcal/mol"),
    ("SAGGSAGGSAGTIRNPGMEFTIKKDPNDKVVVKMNDQERTIRVGKPIYFPGGMPFRIEPASAGGSAGGSAGG [r11_147_TrROS]", "< -1 kcal/mol"),
    ("SAGGSAGGPIVLKFPSPEDLEKAIEIATAHGYEIELNPESGTLVINATGPMLEEFKKIPGLEISSAGGSAGG [r6_724_TrMRF]", "2.72 kcal/mol"),
    ("SAGGSAGGMVTVELPGLPTPEEARARAEEVVAAIVAAGHPGEEVTLTVVYPGSGAAETFTVPLASAGGSAGG [r6_238_JUSTAS]", "-0.328 kcal/mol"),
    ("SAGGSAGGSAGMRKVVTGKEAVVKLTGIPPEVLEAMSEEELRALVAPLVEAGKVDEIELKSAGGSAGGSAGG [r11_80_JUSTAS]", "0.601 kcal/mol"),
]
